Tested on: Trypanosoma cruzi amastigotes (Tulahuen strain) cultured in 3T3 fibroblast cells
ASSAY NOTES: Assay for proliferation of kinetoplastid parasite Trypanosoma cruzi
Type: cell-based
COND: 144 h, Tulahuen amastigotes in 3T3 fibroblast cells, 6 day incubation, read-out: T cruzi EC50
For each record, write down the corresponding EC50.
Give just the number in µM; leave the unit off.

## Task Requested field: EC50. Item: "Cc1cnc2nc(-c3cc(NC(=O)c4cccn4C)ccc3Cl)[nH]c2c1"
## Result 3.7

## Task What would you report for "Cc1cnc2nc(-c3cc(NC(=O)c4ccc(F)s4)ccc3Cl)[nH]c2c1" ?
## Result 0.96

## Task Next compound: "O=C(Nc1ccc(Cl)c(-c2nc3ncc(Br)cc3[nH]2)c1)c1cnccn1"
## Result 3.9

## Task Again, but for "Cc1cnc2nc(-c3cc(NC(=O)N(C)C)ccc3Cl)[nH]c2c1"
## Result 2.58

## Task Okay, and "Cc1cnc2nc(-c3cc(NC(=O)Cc4ccc(F)cc4)ccc3Cl)[nH]c2c1" ?
## Result 9.6

## Task Then "COCCOC(=O)Nc1ccc(Cl)c(-c2nc3ncc(Br)cc3[nH]2)c1" ?
## Result 3.3

## Task Check "Cc1cnc2nc(-c3cc(NC(=O)NCCN(C(C)C)C(C)C)ccc3Cl)[nH]c2c1" too.
## Result 17.9

## Task Now give it for "Cc1cnc2nc(-c3cc(NC(=O)N(C)c4ccccc4)ccc3Cl)[nH]c2c1" too.
## Result 10.4

## Task Would you kindly repeat that for "CC(C)(C)OC(=O)N1CC=C(c2cnc3nc(-c4cc(NC(=O)c5ccco5)ccc4Cl)[nH]c3c2)CC1" ?
## Result 0.108

## Task Field entry: "Cc1cnc2nc(-c3cc(NC(=O)OC4CCCCC4)ccc3Cl)[nH]c2c1"
## Result 6.4

## Task Same lookup for "COC(=O)Nc1ccc(-c2cnc3nc(-c4cc(NC(=O)c5ccco5)ccc4Cl)[nH]c3c2)cc1" , please.
## Result 0.0193

## Task Now the compound "Cc1cnc2nc(-c3cc(NC(=O)c4ccccc4Cl)ccc3Cl)[nH]c2c1"
## Result 0.55

----------
Test system: Leishmania donovani axenic amastigote parasites
ASSAY NOTES: Leishmania donovani axenic amastigote proliferation assay
Format: cell-based
COND: axenic amastigotes in vitro, read-out: L. donovani amastigotes EC50
QUANTITY KIND: EC50

## Task Given the entry "CNC(=O)c1ccc(-c2cnc3nc(-c4cc(NC(=O)c5ccco5)ccc4Cl)[nH]c3c2)cc1" , report its measured EC50.
## Result 680 nM

## Task Lookup "Cc1cnc2nc(-c3cc(NC(=O)c4ccc(S(C)(=O)=O)cc4)ccc3Cl)[nH]c2c1"
## Result > 25000 nM

## Task Request: "Cc1cnc2nc(-c3cc(NS(=O)(=O)Cc4ccccc4)ccc3Cl)[nH]c2c1"
## Result > 25000 nM

## Task Subsequent entry: "CN1CCc2cc(-c3cnc4nc(-c5cc(NC(=O)c6ccco6)ccc5Cl)[nH]c4c3)ccc21"
## Result 1340 nM

## Task Another molecule to look at: "CC(=O)Nc1ccc(F)c(-c2nc3ncc(C)cc3[nH]2)c1"
## Result > 25000 nM

## Task Param item: "Cc1cnc2nc(-c3cc(NC(=O)c4ccnnc4)ccc3Cl)[nH]c2c1"
## Result > 20000 nM

## Task Similarly, "CC(C)OC(=O)Nc1ccc(Cl)c(-c2nc3ncc(C#N)cc3n2C(=O)OC(C)C)c1" ?
## Result 1590 nM

## Task Input "Cc1cnc2nc(-c3cc(NC(=O)c4cc(C5CC5)n[nH]4)ccc3Cl)[nH]c2c1"
## Result > 25000 nM
